Data origin, for the record: patent US8865741B2

- Tested on: sodium channel in hTRPV1-N1E115 cells
- assay.name: FLIPR membrane potential assay of sodium channel response in hTRPV1-N1E115 cells, with (47° C.) or without (25° C.) heat activation of hTRPV1
- Format: cell-based
- experimental.conditions: 0.1 mM; 47° C. (heat activation of hTRPV1)
Listing of recorded hTRPV1-N1E Nav 0.1 mM (% inhibition) 47° C. by entry.

Recorded results for 3 molecules are shown here.
molecule: Cc1ccccc1N(CCC1CCCC[N+]1(C)C)C1Cc2ccccc2C1.[I-] (stereo not drawn) [Example 24]
result: 88.5 (N = 2) %
//
molecule: [Br-].c1ccc(N(CCC2CCCC[N+]23CCCC3)C2Cc3ccccc3C2)cc1 (stereo not drawn) [Example 20]
result: 94.8 (N = 3) %
//
molecule: C[N+]1(C)CCCC1CCN(c1ccccc1)C1Cc2ccccc2C1.[I-] (stereo not drawn) [Example 5]
result: 50 (N = 2) %

For CC[N+]1(CC)CCCCC1CCN(c1cccc(F)c1)C1Cc2ccccc2C1.[I-] (stereo not drawn) [Example 17] the molecule record lists hTRPV1-N1E Nav 0.1 mM (% inhibition) 47° C. as 86.1 (N = 3) %

For Cc1ccccc1N(CCC1CCCC[N+]1(CCO)CCO)C1Cc2ccccc2C1.[Br-] (stereo not drawn) [Example 46] the molecule record lists hTRPV1-N1E Nav 0.1 mM (% inhibition) 47° C. as 94.4 (N = 2) %

For C[N+]1(C)CCCCC1CCN(c1ncccn1)C1Cc2ccccc2C1.[I-] (stereo not drawn) [Example 38] the molecule record lists hTRPV1-N1E Nav 0.1 mM (% inhibition) 47° C. as 37.5 (N = 2) %

---

- Tested on: Male Sprague Dawley (SD) rats
- assay.name: In vivo assay of mechanical nociception (rat pinch model, perisciatic injection)
- experimental.conditions: test compound 0.5%, lidocaine 0%, total injection 200 μL, perisciatic
readout.name: Average Time of Analgesia (h)
State the answer as a number, implicitly in h.

Recorded results for 3 molecules are shown here.
molecule: Cc1ccccc1N(CCC1CCCC[N+]1(C)C)C1Cc2ccccc2C1.[I-] (stereo not shown)
output.unit: h
Average Time of Analgesia: 12
//
molecule: CC[N+](CC)(CC)CC(=O)Nc1c(C)cccc1C [QX-314, reference compound]
output.unit: h
Average Time of Analgesia: 2
//
molecule: CC[N+]1(CC)CCCC[C@H]1CCN(c1ccccc1)C1Cc2ccccc2C1.[I-]
output.unit: h
Average Time of Analgesia: 4

Proceed to the following item.
For C[N+]1(C)CCCCC1CN(c1ccccc1)C1Cc2ccccc2C1.[I-] (stereo not shown) the molecule record lists Average Time of Analgesia as 9

---

Listing of recorded Average Time of Analgesia by entry.
- Tested on: Male Sprague Dawley (SD) rats
- assay.name: In vivo assay of mechanical nociception (rat pinch model, perisciatic injection)
- experimental.conditions: test compound 0.5%, lidocaine 2%, total injection 200 μL, perisciatic

compound: C[N+]1(C)CCCCC1CN(c1ccccc1)C1Cc2ccccc2C1.[I-] (stereo not shown)
Average Time of Analgesia: >15 h

compound: Cc1ccccc1N(CCC1CCCC[N+]1(C)C)C1Cc2ccccc2C1.[I-] (stereo not shown)
Average Time of Analgesia: >168 h

compound: CC[N+]1(CC)CCCC[C@H]1CCN(c1ccccc1)C1Cc2ccccc2C1.[I-]
Average Time of Analgesia: >14 h

Proceed to the following item.
For CC[N+](CC)(CC)CC(=O)Nc1c(C)cccc1C [QX-314, reference compound] the compound record lists Average Time of Analgesia as 9 h

---

Listing of recorded hTRPV1-N1E Nav 0.1 mM (% inhibition) 47° C. by entry.
- System: sodium channel in hTRPV1-N1E115 cells
- assay.name: FLIPR membrane potential assay of sodium channel response in hTRPV1-N1E115 cells, with (47° C.) or without (25° C.) heat activation of hTRPV1
- Format: cell-based
- experimental.conditions: 0.1 mM; 47° C. (heat activation of hTRPV1)
- Description: In one embodiment, a modified FLIPR® (Fluorometric Imaging Plate Reader) based assay system was developed which is capable of discriminating between non-specific versus hTRPV1-mediated entry of test compounds. […] The assay allows a permanently charged compound to selectively enter through opened hTRPV1 channels and that compound's potency in inhibiting sodium channels from the cytoplasm side of the same cell can be assessed and quantified. […]

compound: Cc1ccc(N(CCC2CCCC[N+]2(C)C)C2Cc3ccccc3C2)cc1.[I-] (centres unmarked)
result: 62.7 (N = 2) %
--
compound: CC[N+]1(CC)CCCCC1CCN(c1ccc(C)cc1)C1Cc2ccccc2C1.[I-] (centres unmarked)
result: 89.6 (N = 2) %
--
compound: C[N+]1(C)CCCCC1CCCN(c1ccccc1)C1Cc2ccccc2C1.[I-] (centres unmarked)
result: 57.9 (N = 2) %

For CC[N+]1(CC)CCCCC1CCCN(c1ccccc1)C1Cc2ccccc2C1.[I-] (centres unmarked) the compound record lists hTRPV1-N1E Nav 0.1 mM (% inhibition) 47° C. as 64.7 (N = 2) %

For C[N+]1(C)CCCCC1CCN(c1ccccc1F)C1Cc2ccccc2C1.[I-] (centres unmarked) the compound record lists hTRPV1-N1E Nav 0.1 mM (% inhibition) 47° C. as 94.7 (N = 3) %

---

- target.of.assay: human Nav1.5 sodium channel (Homo sapiens)
- Construct: host or cells: HEK-293
- Sequence (Q14524 whole entry): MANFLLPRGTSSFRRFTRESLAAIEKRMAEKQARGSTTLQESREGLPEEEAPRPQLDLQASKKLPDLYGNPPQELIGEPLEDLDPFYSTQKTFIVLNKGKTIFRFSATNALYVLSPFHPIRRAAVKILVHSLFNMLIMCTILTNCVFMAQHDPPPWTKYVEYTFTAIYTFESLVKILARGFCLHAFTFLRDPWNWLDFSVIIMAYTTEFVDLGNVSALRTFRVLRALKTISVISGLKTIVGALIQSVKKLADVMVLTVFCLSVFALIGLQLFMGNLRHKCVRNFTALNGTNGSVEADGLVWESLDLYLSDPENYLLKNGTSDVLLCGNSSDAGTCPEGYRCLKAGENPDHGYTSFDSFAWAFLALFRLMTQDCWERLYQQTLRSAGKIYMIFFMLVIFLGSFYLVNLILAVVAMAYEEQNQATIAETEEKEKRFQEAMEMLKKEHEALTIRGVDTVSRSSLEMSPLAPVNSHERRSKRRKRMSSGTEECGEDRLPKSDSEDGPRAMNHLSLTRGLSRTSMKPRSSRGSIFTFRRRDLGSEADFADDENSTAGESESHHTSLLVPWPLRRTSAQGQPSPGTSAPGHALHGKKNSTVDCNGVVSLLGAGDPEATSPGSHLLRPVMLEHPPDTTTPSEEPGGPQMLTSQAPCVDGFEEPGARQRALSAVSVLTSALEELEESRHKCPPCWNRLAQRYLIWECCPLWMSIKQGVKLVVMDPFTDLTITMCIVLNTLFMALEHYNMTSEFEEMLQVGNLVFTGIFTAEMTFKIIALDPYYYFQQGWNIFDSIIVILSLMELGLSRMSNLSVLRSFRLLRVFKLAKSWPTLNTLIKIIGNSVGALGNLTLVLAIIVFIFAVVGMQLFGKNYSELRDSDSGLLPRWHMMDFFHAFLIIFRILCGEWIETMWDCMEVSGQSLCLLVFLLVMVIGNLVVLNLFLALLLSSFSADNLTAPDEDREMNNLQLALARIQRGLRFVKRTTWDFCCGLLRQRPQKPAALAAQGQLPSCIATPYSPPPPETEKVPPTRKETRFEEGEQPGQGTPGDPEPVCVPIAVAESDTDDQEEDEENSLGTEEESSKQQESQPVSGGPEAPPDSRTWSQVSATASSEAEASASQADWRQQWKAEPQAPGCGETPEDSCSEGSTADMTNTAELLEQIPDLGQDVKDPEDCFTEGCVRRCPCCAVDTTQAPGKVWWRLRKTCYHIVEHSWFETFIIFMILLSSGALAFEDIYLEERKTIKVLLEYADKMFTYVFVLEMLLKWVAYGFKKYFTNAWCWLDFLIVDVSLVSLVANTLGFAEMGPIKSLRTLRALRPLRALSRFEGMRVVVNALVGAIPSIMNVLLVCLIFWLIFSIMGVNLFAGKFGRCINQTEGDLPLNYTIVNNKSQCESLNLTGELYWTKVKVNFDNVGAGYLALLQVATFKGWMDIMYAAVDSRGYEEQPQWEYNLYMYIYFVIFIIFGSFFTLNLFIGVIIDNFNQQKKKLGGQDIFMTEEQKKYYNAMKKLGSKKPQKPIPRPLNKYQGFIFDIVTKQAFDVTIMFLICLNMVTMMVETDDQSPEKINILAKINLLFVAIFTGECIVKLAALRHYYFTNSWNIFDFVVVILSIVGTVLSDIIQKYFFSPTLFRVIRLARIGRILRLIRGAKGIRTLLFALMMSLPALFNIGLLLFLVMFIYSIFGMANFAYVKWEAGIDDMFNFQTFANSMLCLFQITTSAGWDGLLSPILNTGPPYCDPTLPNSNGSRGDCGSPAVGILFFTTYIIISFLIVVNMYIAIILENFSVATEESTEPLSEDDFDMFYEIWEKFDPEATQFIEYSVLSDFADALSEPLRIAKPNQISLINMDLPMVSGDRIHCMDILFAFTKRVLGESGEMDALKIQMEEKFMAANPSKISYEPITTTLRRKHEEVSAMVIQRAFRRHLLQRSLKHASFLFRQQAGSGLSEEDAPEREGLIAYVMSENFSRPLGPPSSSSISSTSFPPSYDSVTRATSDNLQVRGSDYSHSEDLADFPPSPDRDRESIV
- assay.name: Inhibition of sodium channel response in hNav1.5-HEK293 cells (FLIPR, veratridine)
- Type: cell-based
- experimental.conditions: human, HEK-293 cells expressing human Nav1.5 (hNav1.5-HEK-293), pH 7.4; 0.5 mM; read-out: HEK Nav 1.5 % inh. @ 0.5 mM
# cutoff 80% applies to inhibition at 10 min, 0.5 mM; >= gives rule met, < gives rule not met

molecule: CC[N+]1(CC)CCCC[C@@H]1CCN(c1ccccc1)C1Cc2ccccc2C1.[I-]
class.name: rule met
//
molecule: C[N+]1(C)CCCC[C@H]1CCN(c1ccccc1)C1Cc2ccccc2C1.[I-]
class.name: rule not met
//
molecule: C[N+]1(C)CCCC[C@@H]1CCN(c1ccccc1)C1Cc2ccccc2C1.[I-]
class.name: rule not met

Please tell me: is the molecule C[N+]1(C)CCCCC1CN(c1ccccc1)C1Cc2ccccc2C1.[I-] (centres unmarked) at or over 80% in terms of inhibition at 10 min, 0.5 mM? rule not met

Please tell me: is the molecule `CC[N+]1(CC)CCCC[C@H]1CCN(c1ccccc1)C1Cc2ccccc2C1.[I-]` at or over 80% in terms of inhibition at 10 min, 0.5 mM? rule met

---

- target.of.assay: human Nav1.5 sodium channel (Homo sapiens)
- Construct: host or cells: HEK-293
- assay.name: Inhibition of sodium channel response in hNav1.5-HEK293 cells (FLIPR, veratridine)
- Format: cell-based
- experimental.conditions: average; read-out: HEK Nav 1.5 IC50 (μM) (AVG)
readout.name: IC50 (µM)
State the answer as a number, implicitly in µM.

Recorded results for 4 compounds are shown here.
compound: C[N+]1(C)CCCCC1CN(c1ccccc1)C1Cc2ccccc2C1.[I-] (centres unmarked)
output.unit: µM
quantitative.result: 190
//
compound: CC[N+]1(CC)CCCC[C@@H]1CCN(c1ccccc1)C1Cc2ccccc2C1.[I-]
output.unit: µM
quantitative.result: 44
//
compound: C[N+]1(C)CCCC[C@H]1CCN(c1ccccc1)C1Cc2ccccc2C1.[I-]
output.unit: µM
quantitative.result: 647
//
compound: C[N+]1(C)CCCC[C@@H]1CCN(c1ccccc1)C1Cc2ccccc2C1.[I-]
output.unit: µM
quantitative.result: 667

Proceed to the following item.
For `CC[N+]1(CC)CCCC[C@H]1CCN(c1ccccc1)C1Cc2ccccc2C1.[I-]` the compound record lists IC50 as 247

---

- System: sodium channel in hTRPV1-N1E115 cells
- assay.name: FLIPR membrane potential assay of sodium channel response in hTRPV1-N1E115 cells, with (47° C.) or without (25° C.) heat activation of hTRPV1
- Assay type: cell-based
- experimental.conditions: 0.1 mM; 47° C. (heat activation of hTRPV1)
Listing of recorded hTRPV1-N1E Nav 0.1 mM (% inhibition) 47° C. by entry.

compound: CC[N+]1(CC)CCCCC1CN(c1ccccc1)C1Cc2ccccc2C1.[I-] (stereo not drawn)
result: 99 (N = 2) %
//
compound: CC[N+]1(CC)CCCCC1CCN(c1cccc(C)c1)C1Cc2ccccc2C1.[I-] (stereo not drawn)
result: 80.2 (N = 3) %
//
compound: CC[N+]1(CC)CCCCC1CCN(c1ccc(F)cc1)C1Cc2ccccc2C1.[I-] (stereo not drawn)
result: 86.9 (N = 3) %
//
compound: C[N+]1(C)CCCCC1CN(c1ccc(F)cc1)C1Cc2ccccc2C1.[I-] (stereo not drawn)
result: 43.7 (N = 2) %
//
compound: CC[N+]1(CC)CCCC[C@@H]1CCN(c1ccccc1)C1Cc2ccccc2C1.[I-]
result: 72%
//
compound: C[N+]1(C)CCCC1CN(c1ccccc1)C1Cc2ccccc2C1.[I-] (stereo not drawn)
result: 22.7 (N = 2) %
//
compound: C[N+]1(C)CCCCC1CCN(c1cccc(F)c1)C1Cc2ccccc2C1.[I-] (stereo not drawn)
result: 76.7 (N = 3) %
//
compound: C[N+]1(C)CCCCC1CCN(c1ccccn1)C1Cc2ccccc2C1.[I-] (stereo not drawn)
result: 60.7 (N = 2) %

For CC[N+]1(CC)CCCC1CCN(c1ccccc1)C1Cc2ccccc2C1.[I-] (stereo not drawn) the compound record lists hTRPV1-N1E Nav 0.1 mM (% inhibition) 47° C. as 74.0 (N = 2) %

For C[N+]1(C)CCCCC1CCN(c1ccc2c(c1)OCCO2)C1Cc2ccccc2C1.[I-] (stereo not drawn) the compound record lists hTRPV1-N1E Nav 0.1 mM (% inhibition) 47° C. as 64.9 (N = 2) %

For CC[N+]1(CC)CCCCC1CCN(c1ccccc1F)C1Cc2ccccc2C1.[I-] (stereo not drawn) the compound record lists hTRPV1-N1E Nav 0.1 mM (% inhibition) 47° C. as 92.9 (N = 2) %

For C[N+]1(C)CCCCC1CN(c1cccc(F)c1)C1Cc2ccccc2C1.[I-] (stereo not drawn) the compound record lists hTRPV1-N1E Nav 0.1 mM (% inhibition) 47° C. as 62.6 (N = 2) %
